# targetEntity: T1, recombinant murine MOG protein (murine, UniProt Q61885 29-156, limits assumed)
# T1 construct: Bought recombinant protein; also called MMOG
# T1 sequence (looked up): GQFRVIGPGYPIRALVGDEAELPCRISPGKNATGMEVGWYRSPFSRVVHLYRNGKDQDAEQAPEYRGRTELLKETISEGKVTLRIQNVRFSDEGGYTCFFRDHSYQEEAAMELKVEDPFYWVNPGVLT
# methodSummary: phage-scFv ELISA on coated recombinant murine MOG (0.5 µg/well), anti-M13 HRP, OD450 over BSA background
assayReadout: ratio OD on target/OD bdf

Query block: I would be grateful if you could share the reported ratio OD on target/OD bdf for anti-MOG MO4H-118 antibody (scFv, V domains shown) VH: EVQLVQSGAEVKKPGASVKVSCKVSGYTLTELSMHWVRQAPGKGLEWMGGFDPEDGETIYAQKFQGRVTMTEDTSTDTAYMELSSLRSEDTAVYYCATIGPKVAAHTYYFDYWGQGTLVTVSS VL: DIQLTQSPSSLSASVGDRVTITCRASQTIVTYLNWYQQKPGKAPNLLITDASSLQSGVPSRFSGTESGTDFTLTISSLQPEDFGSYYCQSYMNPITFGQGTRLEIN .
Result block: 4.01 ratio
